B1: scFv; the commonest letter at each place (parent)
chain 1: EVKLDETGGGLVQPGRPMKLSCVASGFTFSDYWMNWVRQSPEKGLEWVAQIRNKPYNYETYYSDSVKGRFTISRDDSKSSVYLQMNNLRVEDMGIYYCTGSYYGMDYWGQGTSVTVS
chain 2: DVVMTQTPLSLPVSLGDQASISCRSSQSLVHSNGNTYLRWYLQKPGQSPKVLIYKVSNRFSGVPDRFSGSGSGTDFTLKISRVEAEDLGVYFCSQSTHVPWTFGGGTKLEIK

- Variants of: B1
- Measurement Description: Kd (Tite-Seq)
- Condition Info: with fluorescein; format: scFv 4-4-20, heavy + light
Below, each of the variants is paired with its reported Kd value.

# return recorded Kd for entry chain 1 G104V Y107I
≥ 10 µM

Continuing:
Supply reported Kd belonging to this variant: chain 1 W36G V37Q
≥ 10 µM

For the variant chain 1 S30H Y32T , give its measured Kd value.
≥ 10 µM

Quote Kd reported for chain 1 D31H V37I please.
0.00062 µM

Fill in reported Kd for this entry: chain 1 S101M G109W
≥ 10 µM

For chain 1 W33N W36R , write its Kd.
≥ 10 µM

Identify measured Kd corresponding to chain 1 V37E
≥ 10 µM

Consider the variant chain 1 W33L V37D . State its measured Kd.
1.47 µM

Name the recorded Kd of the variant listed here: chain 1 D106T Y107V
5.37 µM

Name the recorded Kd of the variant listed here: chain 1 S30G W36L
≥ 10 µM

Look up and state reported Kd for chain 1 Y107I G109K
≥ 10 µM
